tested on: MDA-MB-435 melanoma; experiment: NCI-60 one-dose screen, 48 h; details: 10 µM unless noted
About 83,000 compounds went through this panel and 20% of them were active in at least one assay; those are over-represented in the sample as a whole. Activity calls are given as the source filed them. The calls were made as follows: active = growth percent below 10; inactive = the rest.
Lab note: assign the record to one of 1 = active, 0 = inactive

# input Recorded call for `CCCCN(CCCC)Cc1c(C)[nH]c2cc(OC)ccc2c1=O` ?
# output 0

# input Recorded call for `O=C1NC(=O)C(CC(=O)n2c(-c3ccccc3)nc3ccccc32)C(=O)N1` ?
# output 0

# input Recorded call for COc1c(C2CC(=O)Nc3c2cnn3Cc2ccco2)cc2c(c1OC)OCO2 (configuration not stated) ?
# output 1

# input Recorded call for `Cc1[nH]n(-c2ccccc2)c2nc3nncc3c(-c3ccc(Cl)cc3)c12` ?
# output 0

# input Recorded call for COc1cccc2c1C(=O)c1c(O)c3c(c(O)c1C2=O)C[C@@](O)(/C(C)=N/NC(=O)c1ccc(Cl)cc1)C[C@@H]3OC1CC(N)C(O)C(C)O1 (some centres not stated) ?
# output 1

# input Recorded call for `CCCCCCCCCCCCCCCCCCSC1=CC(=O)C(OC)=C(OC)C1=O` ?
# output 0

# input Recorded call for `Cc1ccc2c(c1)n([O-])c1cc(Cl)ccc1[n+]2=O` ?
# output 0

# input Recorded call for `COc1ccc2nc3cc(Cl)ccc3c(N3CCN(c4ccnc(N5CCN(C)CC5)n4)CC3)c2c1` ?
# output 0

# input Recorded call for `Nc1nc(SCc2ccccc2)c2ncn(C3CCCC3)c2n1` ?
# output 0

# input Recorded call for `Nc1nc(-c2ccc(F)cc2)cc(-c2cnn(-c3ccccc3)n2)n1` ?
# output 0

# input Recorded call for C=C1CC2(OC1=O)C(=O)N(CCCCCCCCCCCCN1C(=O)C3(CC(=C)C(=O)O3)c3ccccc31)c1ccccc12 (configuration not stated) ?
# output 0

# input Recorded call for `COc1ccc(S(=O)(=O)NCCNc2nccc(-c3c(-c4cccc(N)c4)nc4sccn34)n2)cc1` ?
# output 0

# input Recorded call for `Brc1cccc(-c2cc(-c3ccc4c(c3)OCCO4)[nH]n2)c1` ?
# output 1

# input Recorded call for `C=C(C[n+]1ccccc1)[C@@H]1CC[C@]2(C(=O)OC)CC[C@]3(C)[C@H](CC[C@@H]4[C@@]5(C)CC[C@H](O)C(C)(C)[C@@H]5CC[C@]43C)[C@@H]12` ?
# output 0

# input Recorded call for `CCCCCCCCSC1=CC(=O)C(OC)=C(OC)C1=O` ?
# output 1

# input Recorded call for `C[C@@H]1CC[C@@H]2[C@@H]1[C@H](OC(=O)/C=C/c1ccccc1)[C@]1(c3ccccc3)C[C@@H](OC(=O)CO)[C@@]2(C)O1` ?
# output 0

# input Recorded call for `C/C(=C(/c1ccc(O)cc1)c1ccc(Cl)cc1)c1ccccc1` ?
# output 1

# input Recorded call for `NS(=O)(=O)c1ccc(Nc2nc3n[nH]c(Nc4ccccc4)c3c(=O)[nH]2)cc1` ?
# output 0

# input Recorded call for `O=C(C[C@@H](C(=O)NCc1cccc(C(F)(F)F)c1)N1C(=O)[C@@H](N2C(=O)OC[C@@H]2c2ccccc2)[C@H]1/C=C/c1ccccc1)NC1CCN(Cc2ccccc2)CC1` ?
# output 0

# input Recorded call for `COc1cc(-c2c3sc(=O)[nH]c3nc3c2c(=O)[nH]n3C(C)C)cc2c1OCO2` ?
# output 0

# input Recorded call for `COc1ccc(/C=N\NC(=O)c2ccncc2)cc1O` ?
# output 0

# input Recorded call for `CNc1nc(C)c(-c2nc(Nc3cccc(S(N)(=O)=O)c3)ncc2F)s1` ?
# output 0

# input Recorded call for `CC(=O)N1CC(Nc2ccc(OC(F)(F)F)cc2)=CC1=O` ?
# output 1

# input Recorded call for `CC(=O)C1=C(O)C=C2Oc3c(C(=O)/C=C/c4cc(Cl)cc(Cl)c4)c(O)c(C)c(O)c3[C@]2(C)C1=O` ?
# output 1

# input Recorded call for `C=C1C(=O)O[C@H]2[C@H]1CC/C(Cn1cc(Cc3c[nH]c4ccccc34)nn1)=C\CC[C@@]1(C)O[C@@H]21` ?
# output 0

# input Recorded call for `Nc1c(C(=O)Nc2cccc3c2OCCO3)sc2nc3c(cc12)CN(Cc1ccccc1)CC3` ?
# output 1

# input Recorded call for `COc1cc(-c2nc3ccccc3s2)ccc1NC(=O)COc1ccc(Cl)cc1` ?
# output 0
